Measured values drawn from the supplement of paper PMC9170038 for this set.

System: K4 kissing-loop RNA reporter;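 further: bound reporter read as fluorescence of individual clusters on recovered sequencing chips by microscopy, with normalized cluster intensities fitted with a binding model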
Experiment: apparent KD of K4 kissing-loop reporter; higher = weaker reporter binding
Conditions: Eterna round: R107; input ligand: FMN 200 uM
Reported apparent KD of K4 kissing-loop reporter by item:
Form entry: value (nM) — number only.

Below, each entry is followed by its recorded apparent KD of K4 kissing-loop reporter result.
ordered.residues: AAAAUUGCGGUCGAUAGAACUUUUUGCUUACGAGGACCGGUACGGCCGCCACUCGAGUCAAGUGAUGUUUGAUUUUCUAUUAUUA [JR_ExcTryptoA_Sub014]
recorded.value: 112
--
ordered.residues: AUUUAAUUAACUGAUACCAGACUUUAUGUAUUUAUUAAAACUAGUGAUGUUAGUUUAUCUGUCCCUUGGCAGCAGUUUCUACUUA [JR_Nu_ExcTheophyB_Sub021]
recorded.value: 93.5
--
ordered.residues: GUAGAUAGGCUACAUCUCUAGUCUAAAGACUAGGAUAUCAGGAAACUGAGAAGGAGUCUCAUUGGAGUGAUGUUCCAAGAAUAAU [KL-SSFMN-A16]
recorded.value: 100
--
ordered.residues: UCGAUAGAGAGUGAUGUUCUCGUAUCAGAUACCAGUCACGCGAGUGACCCUUGGCAGCUGAUGUACAGCUGAGAGUAGUAUUCGA [Theo A Ex t8]
recorded.value: 90.1
--
ordered.residues: AAGUCAUACAGAAGGAGCGUGUUUUAUAAUUUAUUUUCAUGAUCGAGUGAUGUUCGAUAUACACAGGUAGGUCGCUGUAUAAUAA [JR_SSArginiB_Sub007]
recorded.value: 102

// apparent KD of K4 kissing-loop reporter value for ACACGUGUGGCAGGAUAUCGGGCUGUGGAUCGGCUGGUUGCUUAUUCUCGACCAGUGAUGUUGGUACGAGAAGGGCUACCCAGAA [Diorce] : 149

The reported apparent KD of K4 kissing-loop reporter of the sequence UAUGCUUGUGCUGAUACCAGUGUUAGUGAUGUUAGGACUGUCAGUAGGAUGCGUGCAUUUCACCCUUGGCAGCAGUAUCGCAGCA [theeternabot_exclusion_KL_Theo_B_48] was 447

Reported apparent KD of K4 kissing-loop reporter ( GCUAGCAAUGCAGGAUAUUAAAACGAGUGAUGUUCGGUACCGAGGAUGGGAAACCAUCCUCGGUAAUAAGAAGGGCAUUGCUAGC ) = 210

---

System: MS2 coat protein
Experiment: apparent KD of MS2 coat protein; higher = weaker reporter binding
Conditions: Eterna round: R107; input ligand: arginine 13.2 mM
Overview of recorded apparent KD of MS2 coat protein for various sequences
Please don't drop the unit; write it after the number.

Would you please look over these solved cases?
ordered.residues: AAACAUGAGGAUCACCCAUGUGCUCCUGUCCGAGGACCGGUACGGCCGCCACUCGGUUCUCGGGAGGAUGGUCAAAGACUAUCCA [Omei Trp A SS B v10]
apparent KD of MS2 coat protein: 0.0607 µM
--
ordered.residues: UAAUAAAUAAAUCCAAGGUGAAGGUCAGAUACCAGCCAGAUAACUGGCCCUUGGCAGCUGAAUAAACUUGAGGAUCACCCAGGUA [TheoAS 27 #OpenEnded #MS2Late #AlternativeMS2]
apparent KD of MS2 coat protein: 0.0454 µM
--
ordered.residues: ACAUGAGGAUCACCCAUGUUCCUCAUUGAUACCAGUGAAUUUAGACGCCCUUGGCAGCGAGUUUUUUUAUAAGAUUUUUUUUUUU [6.I]
apparent KD of MS2 coat protein: 0.239 µM
--
ordered.residues: UGUAACAUGAGGAUCACCCAUGUGAGUGAUACCAGAUUAGUAGUAGUCCCUUGGCAGCAUAUUGGGCGAGUGUAUAGUCUAUGCG [Same State - Theophylline A (Freestyle 10)]
apparent KD of MS2 coat protein: 0.094 µM
--
ordered.residues: AUUCCAUUGGUGCAGUUGUUAAAUGGCGAUACCAGCGUGGAAACACGCCCUUGGCAGCGCCAAAACAUGAGGAUCACCCAUGUUA [Havirov]
apparent KD of MS2 coat protein: 0.0321 µM

Next sequence, please.
The sequence UAAUAAAUAAAUCCAAGGUGAAGGUCAGAUACCAGCCAGAUAACUGGCCCUUGGCAGCUGAAUAAGCUUGAGGAUCACCCAAGUA [TheoAS 26 #OpenEnded #MS2Late #AlternativeMS2] showed apparent KD of MS2 coat protein equal to 0.0275 µM
